test.target: Oxysterols receptor LXR-beta (Rattus norvegicus, UniProt Q62755)
run.description: Transactivation of rat LXRbeta expressed in HEK293FT cells measured after 14 to 18 hrs by dual-luciferase reporter gene assay
Format: cell-based
stated.conditions: read-out: EC50
measured.metric: pEC50
Numbers only, as −log10 of the molar value.

Kindly give each listed record's pEC50.
1. CCN(CC)C(=O)CC[C@@H](C)[C@H]1CC[C@H]2[C@@H]3CC=C4C[C@@H](O)CC[C@]4(C)[C@H]3CC[C@]12C
2. CCN1CCC[C@@H](C[C@@H](C)[C@H]2CC[C@H]3[C@@H]4CC=C5C[C@@H](O)CC[C@]5(C)[C@H]4CC[C@]23C)C1=O
3. CCN(C)C(=O)C(C)C[C@@H](C)[C@H]1CC[C@H]2[C@@H]3CC=C4C[C@@H](O)CC[C@]4(C)[C@H]3CC[C@]12C (stereo in doubt; 11)

[6.46, 6.19, 5.70]

---

test.target: Oxysterols receptor LXR-beta (Rattus norvegicus, UniProt Q62755)
run.description: Transactivation of rat LXRbeta expressed in HEK293FT cells measured after 14 to 18 hrs by dual-luciferase reporter gene assay
Assay type: cell-based
stated.conditions: read-out: EC50
measured.metric: pEC50
Give bare numbers, as −log10 of the molar value.

Observe how each entry below is paired with its result.
* CC(C)N(C)C(=O)CC[C@@H](C)[C@H]1CC[C@H]2[C@@H]3CC=C4C[C@@H](O)CC[C@]4(C)[C@H]3CC[C@]12C | 6.21
* CC(C)N(C(=O)CC[C@@H](C)[C@H]1CC[C@H]2[C@@H]3CC=C4C[C@@H](O)CC[C@]4(C)[C@H]3CC[C@]12C)C(C)C | 5.96
* C[C@H](C[C@H]1CCN(C)C1=O)[C@H]1CC[C@H]2[C@@H]3CC=C4C[C@@H](O)CC[C@]4(C)[C@H]3CC[C@]12C | 5.89
* C[C@H](CCC(=O)N1CCCCC1)[C@H]1CC[C@H]2[C@@H]3CC=C4C[C@@H](O)CC[C@]4(C)[C@H]3CC[C@]12C | 6.90

Requested field: pEC50. Item: "C[C@H](C[C@@H]1CCCCN(C)C1=O)[C@H]1CC[C@H]2[C@@H]3CC=C4C[C@@H](O)CC[C@]4(C)[C@H]3CC[C@]12C"
6.34

---

test.target: Oxysterols receptor LXR-beta (Rattus norvegicus) (UniProt Q62755)
Sequence (Q62755 whole entry): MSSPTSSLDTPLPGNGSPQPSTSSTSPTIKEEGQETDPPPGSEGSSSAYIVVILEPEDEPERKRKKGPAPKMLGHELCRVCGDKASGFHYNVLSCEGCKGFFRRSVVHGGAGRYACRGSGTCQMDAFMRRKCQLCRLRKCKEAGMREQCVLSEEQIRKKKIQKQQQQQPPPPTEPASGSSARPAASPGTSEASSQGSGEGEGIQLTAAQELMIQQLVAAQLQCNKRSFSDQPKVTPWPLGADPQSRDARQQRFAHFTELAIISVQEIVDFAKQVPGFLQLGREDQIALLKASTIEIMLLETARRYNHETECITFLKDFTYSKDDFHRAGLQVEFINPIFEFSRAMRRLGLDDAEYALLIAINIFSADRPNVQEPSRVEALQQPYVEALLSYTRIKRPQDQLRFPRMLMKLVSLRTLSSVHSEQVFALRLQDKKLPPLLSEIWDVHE
run.description: Transactivation of rat LXRbeta expressed in HEK293FT cells measured after 14 to 18 hrs by dual-luciferase reporter gene assay relative to T0901317
Type: cell-based
measured.metric: Efficacy (%)
Answers are plain numbers, in %.

• CCN1CCC[C@@H](C[C@@H](C)[C@H]2CC[C@H]3[C@@H]4CC=C5C[C@@H](O)CC[C@]5(C)[C@H]4CC[C@]23C)C1=O = 62
• CCN(C)C(=O)CC[C@@H](C)[C@H]1CC[C@H]2[C@@H]3CC=C4C[C@@H](O)CC[C@]4(C)[C@H]3CC[C@]12C = 108

Parameters: items (list). Returns: Efficacy for each item.
1. CCCN(C)C(=O)CC[C@@H](C)[C@H]1CC[C@H]2[C@@H]3CC=C4C[C@@H](O)CC[C@]4(C)[C@H]3CC[C@]12C
2. C[C@H](CCC(=O)N1CCCC1)[C@H]1CC[C@H]2[C@@H]3CC=C4C[C@@H](O)CC[C@]4(C)[C@H]3CC[C@]12C
3. CCN(C)C(=O)C(C)C[C@@H](C)[C@H]1CC[C@H]2[C@@H]3CC=C4C[C@@H](O)CC[C@]4(C)[C@H]3CC[C@]12C (stereo in doubt; 10)
4. C[C@H](CCC(=O)N(C)C)[C@H]1CC[C@H]2[C@@H]3CC=C4C[C@@H](O)CC[C@]4(C)[C@H]3CC[C@]12C
5. CCN(CC)C(=O)CC[C@@H](C)[C@H]1CC[C@H]2[C@@H]3CC=C4C[C@@H](O)CC[C@]4(C)[C@H]3CC[C@]12C

1. 102
2. 99
3. 39
4. 100
5. 211

Fill blank: measured Efficacy of the molecule "CC(C)N(C)C(=O)CC[C@@H](C)[C@H]1CC[C@H]2[C@@H]3CC=C4C[C@@H](O)CC[C@]4(C)[C@H]3CC[C@]12C" is ____.
109
